# measured.on: B1 bradykinin receptor (Homo sapiens, UniProt P46663)
# Sequence (P46663 whole entry): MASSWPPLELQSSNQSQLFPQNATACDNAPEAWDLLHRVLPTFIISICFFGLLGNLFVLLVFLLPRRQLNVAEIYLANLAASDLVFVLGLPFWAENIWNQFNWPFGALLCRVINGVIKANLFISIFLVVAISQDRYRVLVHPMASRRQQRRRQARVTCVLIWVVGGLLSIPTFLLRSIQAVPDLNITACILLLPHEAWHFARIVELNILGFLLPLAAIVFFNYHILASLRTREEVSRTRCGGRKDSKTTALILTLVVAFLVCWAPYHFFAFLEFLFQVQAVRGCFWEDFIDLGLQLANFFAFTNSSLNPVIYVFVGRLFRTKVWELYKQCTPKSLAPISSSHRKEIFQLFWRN
pKi: −log10 of the molar value.
Could you label it Condition met if measured pKi is 8 or higher, and Condition not met otherwise?

// below: answered compounds
{"compound": "COC(=O)c1c(F)cccc1-c1ccc(CNC(=O)C2(NC(=O)C(C)(Cl)Cl)CC2)c(F)c1", "category": "Condition not met"}
{"compound": "COC(=O)c1c(F)cccc1-c1ccc([C@@H](C)NC(=O)C2(NC(=O)C(F)(F)F)CC2)c(F)c1", "category": "Condition met"}
{"compound": "COC(=O)c1c(F)cccc1-c1ccc(CNC(=O)C2(NC(=O)C(Cl)Cl)CC2)c(F)c1", "category": "Condition met"}
{"compound": "COC(=O)c1c(F)cccc1-c1ccc([C@@H](C)NC(=O)C2(NC(C)=O)CC2)c(F)c1", "category": "Condition met"}

Input line: Item `CCOC(=O)c1c(Cl)cccc1-c1ccc([C@@H](C)NC(=O)C2(NC(=O)C(F)(F)F)CC2)c(F)c1` with pKi of 8 or above?
Output line: Condition met

Input line: One more compound: `C[C@@H](NC(=O)C1(NC(=O)C(F)(F)F)CC1)c1ccc(-c2cccc(F)c2-c2nnn(C)n2)cc1F`
Output line: Condition met

Input line: One more compound: COC(=O)c1c(F)cccc1-c1ccc(CNC(=O)C2(NC(=O)C(F)Cl)CC2)c(F)c1 (stereo not given)
Output line: Condition met

Input line: One more compound: `C[C@@H](NC(=O)C1(NC(=O)C(F)(F)F)CC1)c1ccc(-c2cccc(F)c2-c2nnnn2C)cc1F`
Output line: Condition not met
